# Test system: MDA-MB-435
# assay.name: NCI tumour cell line growth inhibition, 48 h
Active and inactive are the calls of the source. Rule as the data show it: active = GI50 up to about 1.1 µM and inactive = higher.
Outcome codes: TRUE for active, FALSE for inactive

{"molecule": "CC(C)(C)NC(=O)[C@H]1CC[C@H]2[C@@H]3CC=C4NC(=O)CC[C@]4(C)[C@H]3CC[C@]12C", "class": "FALSE"}
{"molecule": "Clc1cc(-c2ccccc2)nc(Nc2nc3ccccc3[nH]2)n1", "class": "FALSE"}
{"molecule": "O=C1CC(/C=C/c2ccco2)=C(O)C1=O", "class": "FALSE"}
{"molecule": "CCCCn1c(-c2ccc([N+](=O)[O-])cc2)cs/c1=N/N=C1\\C(=O)Nc2ccc(Br)cc21", "class": "FALSE"}
{"molecule": "O=c1[nH]cnc2c1ncn2[C@H]1CO[C@@H](CO)[C@@H]1O", "class": "FALSE"}
{"molecule": "COC(=O)CSC1CC(=O)c2c(Cl)sc(Cl)c21 (stereo not drawn)", "class": "FALSE"}
{"molecule": "CCP(=O)(OC)C1=CCN(C(=O)OCC[Si](C)(C)C)CC1 (stereo not drawn)", "class": "FALSE"}
{"molecule": "C/C=C/CC(C(=O)OCC)(N(C)C(=O)OC(C)(C)C)S(=O)(=O)c1ccc(C)cc1 (stereo not drawn)", "class": "FALSE"}
{"molecule": "CC(=O)OCC(C)(COC(C)=O)N1C(=O)C2C3c4ccccc4C(c4ccccc43)C2C1=O (stereo not drawn)", "class": "FALSE"}
{"molecule": "CC(=O)Nc1cc(/C=C\\C(=O)N2CC(CCl)c3c2cc(N)c2ccccc32)n(C)n1 (stereo not drawn)", "class": "TRUE"}
{"molecule": "CCCCC(C#N)(OP1(=O)OC(c2ccccc2)C(C)N1C)c1ccccc1 (stereo not drawn)", "class": "FALSE"}
{"molecule": "COc1ccc(OC)c2sc(N3C(=O)/C(=C/c4ccc(Cl)cc4)N=C3c3ccccc3)nc12", "class": "FALSE"}
{"molecule": "O=C1Nc2ccccc2/C1=C1/Nc2ccccc2/C1=N\\OCCNCC(O)C(O)C(O)C(O)CO (stereo not drawn)", "class": "FALSE"}
{"molecule": "Nc1c2c(nc3ccccc13)-c1ccccc1NCCC2", "class": "FALSE"}
{"molecule": "Cc1ccc(OCC2OC(C#N)C(Oc3ccc(C)cc3)C2Oc2ccc(C)cc2)cc1 (stereo not drawn)", "class": "FALSE"}
{"molecule": "CC(C)(C)CNCCO", "class": "FALSE"}
{"molecule": "CC1(C)CC(C2=NCCO2)CC(C)(C)N1", "class": "FALSE"}
{"molecule": "O=C1C(Cl)C(c2cc3cc(Br)ccc3nc2Cl)N1c1c(Cl)cccc1Cl (stereo not drawn)", "class": "FALSE"}
{"molecule": "CN(CCCNCc1ccccn1)Cc1ccccc1O", "class": "FALSE"}
{"molecule": "CC1=C(\\C=C/C(C)=C/C=C/C(C)=C/C=C/C=C(C)\\C=C\\C=C(C)/C=C/C2=C(C)CCCC2(C)C)C(C)(C)CCC1", "class": "FALSE"}
{"molecule": "Cc1ccc(/N=N/C(=N\\c2ccc(Cl)cc2)c2ccc(N(CCC#N)CCC#N)cc2)cc1", "class": "FALSE"}
{"molecule": "CN(C)c1ncnc2c1ncn2CCn1cnc2c(N(C)C)ncnc21", "class": "FALSE"}
{"molecule": "O=C(O)C1C2OC(C(Br)C2Br)C1C(=O)O (stereo not drawn)", "class": "FALSE"}
{"molecule": "c1ccc(-c2nnc(-c3ccccn3)c3c2C[C@@H]2C[C@@H]4Cc5c(-c6ccccn6)nnc(-c6ccccn6)c5[C@@H]4[C@H]32)nc1", "class": "FALSE"}
{"molecule": "CCC1(c2ccc(N)cc2)CCC(=O)NC1=O (stereo not drawn) [AMINOGLUTETHIMIDE]", "class": "FALSE"}
{"molecule": "COc1ccc(C2=Nn3c(nc4sc(C)c(C)c4c3=O)SC2)cc1", "class": "FALSE"}
{"molecule": "CC(C)OC(=O)c1cc(NC(=S)OC(C)C)ccc1Cl", "class": "FALSE"}
{"molecule": "C[C@@H](c1ccccc1)N1CO[C@@]2(C#Cc3ccc4c(c3)OCO4)CCC[C@@H]12", "class": "FALSE"}
{"molecule": "O=c1ccc2cc(O)c(O)cc2o1 [ESCULETIN]", "class": "FALSE"}
{"molecule": "Cc1ccc(S(=O)(=O)N(CC(O)COc2ccccc2)c2ccccc2Cl)cc1 (stereo not drawn)", "class": "FALSE"}
{"molecule": "CCOC(=O)C1C(c2ccc(OC)cc2)c2c(n[nH]c2O)CC1(C)O (stereo not drawn)", "class": "FALSE"}
{"molecule": "NS(=O)(=O)c1ccc(/N=N/c2cccnc2O)cc1", "class": "FALSE"}
{"molecule": "CCCCCCCCCCCC(=O)OC[C@H](C[As](=O)(O)O)OC(=O)CCCCCCCCCCC", "class": "FALSE"}
